Target: T1, ActRIIB-Fc homodimer (UniProt Q13705 19-137)
T1 construct: extracellular domain; also called ActRIIB homodimer
T1 sequence (looked up): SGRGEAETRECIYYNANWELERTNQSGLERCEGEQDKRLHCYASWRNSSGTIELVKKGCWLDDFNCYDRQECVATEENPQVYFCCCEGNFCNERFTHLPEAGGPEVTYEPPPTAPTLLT
Assay: Biacore SPR
kon for assorted binders

Use the examples below as a reference point.
Look up kon: GDF11 (ligand, UniProt O95390 299-407, looked up, also called BMP11) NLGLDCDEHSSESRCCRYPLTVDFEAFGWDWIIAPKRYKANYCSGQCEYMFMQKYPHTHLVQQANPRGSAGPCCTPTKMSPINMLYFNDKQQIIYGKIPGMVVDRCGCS
5e+07 M⁻¹ s⁻¹

Please report the recorded kon for GDF3 (ligand, UniProt Q9NR23 251-364, looked up) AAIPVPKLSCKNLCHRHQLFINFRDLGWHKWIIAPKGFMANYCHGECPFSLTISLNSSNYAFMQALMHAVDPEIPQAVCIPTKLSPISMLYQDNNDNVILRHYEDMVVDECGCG .
1.4e+06 M⁻¹ s⁻¹

Query (binder): activin A (ligand, UniProt P08476 311-426, looked up) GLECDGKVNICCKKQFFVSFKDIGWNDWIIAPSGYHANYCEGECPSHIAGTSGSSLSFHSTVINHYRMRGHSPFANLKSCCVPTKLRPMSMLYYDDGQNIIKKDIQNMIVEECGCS ; field requested: kon
1.2e+07 M⁻¹ s⁻¹

New cases:
Any idea what its kon is? The binder is BMP10 (ligand, UniProt O95393 317-424, looked up) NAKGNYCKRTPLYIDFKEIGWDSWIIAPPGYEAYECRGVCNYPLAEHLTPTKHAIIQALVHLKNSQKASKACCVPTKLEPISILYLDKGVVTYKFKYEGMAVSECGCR
2.3e+07 M⁻¹ s⁻¹

Param item = BMP9 (ligand, UniProt Q9UK05 320-429, looked up, also called GDF2) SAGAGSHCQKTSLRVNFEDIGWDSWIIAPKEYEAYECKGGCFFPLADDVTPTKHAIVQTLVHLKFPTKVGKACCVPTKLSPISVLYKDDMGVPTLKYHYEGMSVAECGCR ; retrieve measured kon.
1.4e+07 M⁻¹ s⁻¹

Endpoint output: kon of activin B (ligand, UniProt P09529 293-407, looked up) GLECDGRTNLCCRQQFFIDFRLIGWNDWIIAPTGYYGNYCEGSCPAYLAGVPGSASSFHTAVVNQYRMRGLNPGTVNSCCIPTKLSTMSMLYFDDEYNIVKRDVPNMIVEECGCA . Value?
5.1e+06 M⁻¹ s⁻¹
